Biological target: T1, OX40-mFc protein (UniProt P43489 29-214)
T1 sequence (looked up): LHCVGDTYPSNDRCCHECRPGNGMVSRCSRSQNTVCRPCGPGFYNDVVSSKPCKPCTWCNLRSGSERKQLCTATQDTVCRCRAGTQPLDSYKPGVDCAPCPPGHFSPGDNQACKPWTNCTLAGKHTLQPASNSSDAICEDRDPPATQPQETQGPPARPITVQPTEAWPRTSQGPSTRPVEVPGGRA
Test: phage ELISA, monoclonal phage supernatant on OX40-mFc
binders and their reported ELISA Results (OD450)
result.type: ELISA Results (OD450)

>>> val("OX40 BC3-1 (phage-displayed VHH clone) (VHH, Tested as phage in monoclonal culture supernatant (M13 display), not as purified protein; the phage coat fusion is not described) VHH: EVQLVESGGGLVQPGGSLRLSCAASGSIFSVYVMGWFRQAPGKGRELVAAITPFDDNTYYPDSVEGRFTISRDNAKRMVYLQMNSLRAEDTAVYYCAADWEWPEYNYWGQGTQVTVSS")
3.45
>>> val("OX40 BC3-7 (phage-displayed VHH clone) (VHH, Tested as phage in monoclonal culture supernatant (M13 display), not as purified protein; the phage coat fusion is not described) VHH: EVQLVESGGGLVQPGGSLRLSCAASGSIYDFDVMGWFRQAPGKGRELVAAINSFGDITYYPDSVEGRFTISRDNAKRMVYLQMNSLRAEDTAVYYCAADWHVLIQQVLGYWGQGTQVTVSS")
3.12
>>> val("OX40 BC3-4 (phage-displayed VHH clone) (VHH, Tested as phage in monoclonal culture supernatant (M13 display), not as purified protein; the phage coat fusion is not described) VHH: EVQLVESGGGLVQPGGSLRLSCAASGFIFSAYFMGWFRQAPGKGRELVAAINSNDDITYYPDSVEGRFTISRDNAKRMVYLQMNSLRAEDTAVYYCAAWLGAENYGYWGQGTQVTVSS")
3.31
>>> val("OX40 BC3-6 (phage-displayed VHH clone) (VHH, Tested as phage in monoclonal culture supernatant (M13 display), not as purified protein; the phage coat fusion is not described) VHH: EVQLVESGGGLVQPGGSLRLSCAASGSILDSNLMGWFRQAPGKGRELVASINSYDDNTYYPDSVEGRFTISRDNAKRMVYLQMNSLRAEDTAVYYCAAQVFVGWPYTDQMHDYWGQGTQVTVSS")
3.21
